Origin of measurements: patent US9090593B2

target: Pim-1 stably transfected into the U2OS human osteogenic sarcoma line (Homo sapiens); construct: expressed in transfected cells; host or cells: U2OS human osteogenic sarcoma line; test: Pim cell assay, phospho-BAD normalized against total BAD, U2OS stably transfected with Pim-1; format: cell-based; details: U2OS cells stably transfected with Pim-1, phospho-BAD; high dose […]; read-out: Pim1_Cell_IC50
Sequence (P11309 whole entry): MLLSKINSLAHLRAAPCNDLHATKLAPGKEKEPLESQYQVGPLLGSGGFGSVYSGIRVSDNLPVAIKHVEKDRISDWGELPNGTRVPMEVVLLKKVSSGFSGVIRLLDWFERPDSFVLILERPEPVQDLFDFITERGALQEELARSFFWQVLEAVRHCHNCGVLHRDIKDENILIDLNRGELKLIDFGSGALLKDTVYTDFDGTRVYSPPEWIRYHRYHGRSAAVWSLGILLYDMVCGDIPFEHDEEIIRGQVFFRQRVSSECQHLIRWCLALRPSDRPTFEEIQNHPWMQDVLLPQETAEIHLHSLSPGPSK
Property Label: IC50 (nM)

These solved cases illustrate the format of a correct answer.
Compound: NC1CCN(c2cncc(-c3n[nH]c4ccc(-c5cccc(F)c5)cc34)n2)CC1 [Example 7]
Assay Target: Pim-1 stably transfected into the U2OS human osteogenic sarcoma line (Homo sapiens)
Experimental Value: 748

Compound: CN(C)c1cccc(-c2ccc3[nH]nc(-c4cncc(N5CCC(N)CC5)n4)c3c2)c1 [Example 108]
Assay Target: Pim-1 stably transfected into the U2OS human osteogenic sarcoma line (Homo sapiens)
Experimental Value: 866

Compound: CC(C)c1ccnc(-c2ccc3[nH]nc(-c4cncc(O[C@@H]5CCCNC5)n4)c3c2)n1 [Example 126]
Assay Target: Pim-1 stably transfected into the U2OS human osteogenic sarcoma line (Homo sapiens)
Experimental Value: 563

Compound: C(=C\C1CC1)/c1ccc2[nH]nc(-c3cncc(O[C@@H]4CCCNC4)n3)c2c1 [Example 147]
Assay Target: Pim-1 stably transfected into the U2OS human osteogenic sarcoma line (Homo sapiens)
Experimental Value: 724

Compound: CC(C)(C)NC(=O)c1ccc(F)c(-c2ccc3[nH]nc(-c4cncc(N5CCC(N)CC5)n4)c3c2)c1 [Example 37]
Assay Target: Pim-1 stably transfected into the U2OS human osteogenic sarcoma line (Homo sapiens)
Experimental Value: 573

I. N[C@H]1CCCN(c2cncc(-c3c[nH]c4ccc(-c5c(F)cccc5F)cc34)n2)C1 [Example 201]
II. COc1cc(-c2ccc3[nH]nc(-c4cncc(N5CCC(N)CC5)n4)c3c2)c(F)cn1 [Example 70]
Name the one with the greater IC50 value, either I or II as given. Return value: the label identifying the chosen record.
I
(I: 611 nM, II: 255 nM)

* * *

target: full length recombinant Pim-1 protein (Homo sapiens); construct: by full length recombinant Pim-1, Pim-2, or Pim-3 protein; hexahistidine tag followed by a thrombin cleavage site (N); made in house; host or cells: Sf9 (baculovirus) or E. coli (pET28); test: Pim-1 enzyme assay (HTRF, phosphorylation of biotinylated-BAD (S112) peptide); assay type: biochemical; conditions: enzyme assay, Pim-1; read-out: Pim_1_IC50
Property Label: IC50 (nM)

Compound: Fc1cccc(F)c1-c1ccc2[nH]cc(-c3cncc(N[C@@H]4CCNC4)n3)c2c1 [Example 208]
Experimental Value: 2
--
Compound: Fc1cccc(F)c1-c1ccc2[nH]nc(-c3cncc(Nc4ccccc4)n3)c2c1 [Example 184]
Experimental Value: 139
--
Compound: NC1CCN(c2cncc(-c3n[nH]c4ccc(-c5ccccc5Cl)cc34)n2)CC1 [Example 83]
Experimental Value: 10
--
Compound: COc1cnc(-c2c[nH]c3ccc(-c4cncc(OC(C)C)n4)cc23)cn1 [Example 222]
Experimental Value: 732

I. Fc1cccc(F)c1-c1ccc2[nH]cc(-c3cncc(OC4CCNCC4)n3)c2c1 [Example 206]
II. NC1CCN(c2cncc(-c3c[nH]c4ccc(C(=O)O)cc34)n2)CC1 [Example 237]
III. COc1ccc2c(-c3ccc4[nH]nc(-c5cncc(N6CCC(N)CC6)n5)c4c3)ccnc2c1 [Example 101]
IV. NC1CCN(c2cncc(-c3n[nH]c4ccc(-c5cc(C(=O)NC6CC6)ccc5F)cc34)n2)CC1 [Example 3]
Ordering criterion: IC50; begin with the maximum. In plain terms: list the labels in the order you were asked to.
II, IV, III, I
